test system: blackgrass (Aloepecurus myosuroides); test: Postemergence herbicidal activity, blackgrass; format: in vivo; details: Alopecurus myosuroides, post-emergence, rate of application 0.3 Kg/Ha, rated after 12-17 days, read-out: Postemergence herbicidal activity (% control) ALOMY
quantityName: inhibition at 300 g/ha (%)

CCc1nc2c(-n3c(=O)cc(C(F)(F)F)n(C)c3=O)c(F)cc(Cl)c2[nH]1: 100
Cn1c(C(F)(F)F)cc(=O)n(-c2c(F)cc(Cl)c3[nH]c(C(F)(F)F)nc23)c1=O: 70
Cn1c(C(F)(F)F)cc(=O)n(-c2c(F)cc(Cl)c3[nH]c(C(C)(C)C)nc23)c1=O: 100
COc1nc2c(-n3c(=O)cc(C(F)(F)F)n(C)c3=O)c(F)cc(Br)c2o1: 90
CC(C)c1nc2c(-n3c(=O)cc(C(F)(F)F)n(C)c3=O)c(F)cc(Cl)c2o1: 100
Cn1c(C(F)(F)F)cc(=O)n(-c2c(F)cc(Cl)c3[nH]c(C(F)(F)F)cc23)c1=O: 80

====

Tested on: soybean (Glycine max var. Winchester)
Test: Preemergence herbicidal activity, soybean
Format: in vivo
Details: Rate of Application 0.3 Kg/Ha, examined after 12-17 days
Method: The benzofused heterocyclic compounds of this invention were tested for pre- and postemergence herbicidal activity using a variety of crops and weeds. […] The preemergence flats were initially subjected to a light water spray. […] After 12-17 days the plants were examined and the phytotoxicity data were recorded. […]
Below, each entry is listed with its recorded PREEMERGENCE HERBICIDAL ACTIVITY (% CONTROL) SOY.
quantityName: PREEMERGENCE HERBICIDAL ACTIVITY (% CONTROL) SOY (%)

Cn1c(C(F)(F)F)cc(=O)n(-c2c(F)cc(Br)c3oc(NS(C)(=O)=O)nc23)c1=O [Compound 108]: 0
CC(C)Oc1nc2c(-n3c(=O)cc(C(F)(F)F)n(C)c3=O)c(F)cc(Br)c2o1 [Compound 107]: 80
CCOC(=O)CCc1nc2c(-n3c(=O)cc(C(F)(F)F)n(C)c3=O)c(F)cc(Cl)c2[nH]1 [Compound 372]: 100
CCOC(=O)c1cc2cccc(-n3c(=O)cc(C(F)(F)F)n(C)c3=O)c2o1 [Compound 267]: 0
CCOC(=O)c1cc2c(Cl)ccc(-n3c(=O)cc(C(F)(F)F)n(C)c3=O)c2o1 [Compound 268]: 30
Cn1c(C(F)(F)F)cc(=O)n(-c2c(F)cc(Cl)c3[nH]c(C4CCCCC4)nc23)c1=O [Compound 373]: 100
CC(=O)OC(C)(C)c1cc2c(Cl)cc(F)c(-n3c(=O)cc(C(F)(F)F)n(C)c3=O)c2o1 [Compound 253]: 100
CC(F)c1cc2c(Cl)cc(F)c(-n3c(=O)cc(C(F)(F)F)n(C)c3=O)c2o1 (stereo not drawn) [Compound 235]: 100
C=C(C)c1cc2c(Cl)cc(F)c(-n3c(=O)cc(C(F)(F)F)n(C)c3=O)c2o1 [Compound 231]: 100

====

Tested on: soybean (Glycine max var. Winchester)
Assay: Postemergence herbicidal activity, soybean
Assay type: in vivo
Settings: rate of application 0.3 Kg/Ha, rated after 12-17 days
Method: The benzofused heterocyclic compounds of this invention were tested for pre- and postemergence herbicidal activity using a variety of crops and weeds. […] The preemergence flats were initially subjected to a light water spray. […] After 12-17 days the plants were examined and the phytotoxicity data were recorded. […]
quantityName: Postemergence herbicidal activity (% control) SOY (%)

Cn1c(C(F)(F)F)cc(=O)n(-c2c(F)cc(Br)c3oc(COc4ccccc4)nc23)c1=O: 80
Cc1nc2c(-n3c(=O)cc(C(F)(F)F)n(C)c3=O)c(F)cc(Cl)c2[nH]1: 100
CNC(=O)c1cc2c(Cl)cc(F)c(-n3c(=O)cc(C(F)(F)F)n(C)c3=O)c2o1: 95
CC(C)C(=O)OC(C)c1cc2c(Cl)cc(F)c(-n3c(=O)cc(C(F)(F)F)n(C)c3=O)c2o1 (stereo not shown): 95
CCOC(=O)c1cc2c(Cl)ccc(-n3c(=O)cc(C(F)(F)F)n(C)c3=O)c2o1: 70
Cn1c(C(F)(F)F)cc(=O)n(-c2c(F)cc(Cl)c3nc(Cc4ccccc4Cl)[nH]c23)c1=O: 95
COCc1nc2c(-n3c(=O)cc(C(F)(F)F)n(C)c3=O)c(F)cc(Br)c2o1: 100
Cn1c(C(F)(F)F)cc(=O)n(-c2c(F)cc(Cl)c3[nH]c(C(F)(F)Cl)nc23)c1=O: 70
COCc1nc2c(-n3c(=O)cc(C(F)(F)F)n(C)c3=O)c(F)cc(Cl)c2[nH]1: 100
Cn1c(C(F)(F)F)cc(=O)n(-c2c(F)cc(Cl)c3nc(Cc4ccccc4)[nH]c23)c1=O: 90
CC(c1ccccc1)c1nc2c(Cl)cc(F)c(-n3c(=O)cc(C(F)(F)F)n(C)c3=O)c2[nH]1 (stereo not shown): 95
Cn1c(C(F)(F)F)cc(=O)n(-c2c(F)cc(Cl)c3[nH]c(C45CC6CC(CC(C6)C4)C5)nc23)c1=O: 80
CCN(CC)Cc1cc2c(Cl)ccc(-n3c(=O)cc(C(F)(F)F)n(C)c3=O)c2o1: 70
CCOC(=O)c1cc2c(-n3c(=O)cc(C(F)(F)F)n(C)c3=O)c(F)cc(Cl)c2[nH]1: 95
Cn1c(C(F)(F)F)cc(=O)n(-c2c(F)cc(Cl)c3nc(Cc4cccc(Cl)c4)[nH]c23)c1=O: 80
CC(OC(=O)c1ccccc1)c1cc2c(Cl)cc(F)c(-n3c(=O)cc(C(F)(F)F)n(C)c3=O)c2o1 (stereo not shown): 80
CC(=O)N(C(C)=O)c1nc2c(-n3c(=O)cc(C(F)(F)F)n(C)c3=O)c(F)cc(Br)c2o1: 85
Cn1c(C(F)(F)F)cc(=O)n(-c2ccc(Cl)c3cc(C(=O)O)oc23)c1=O: 60
Cn1c(C(F)(F)F)cc(=O)n(-c2c(F)cc(Cl)c3cc(C(C)(C)C)oc23)c1=O: 95
Cn1c(C(F)(F)F)cc(=O)n(-c2c(F)cc(Cl)c3cc(C(N)=O)oc23)c1=O: 95
Cn1c(C(F)(F)F)cc(=O)n(-c2c(F)cc(Cl)c3cc(C(C)(C)N)oc23)c1=O: 95
CCCCc1cc2c(Cl)ccc(-n3c(=O)cc(C(F)(F)F)n(C)c3=O)c2o1: 60
CC(C)c1cc2c(Cl)cc(F)c(-n3c(=O)cc(C(F)(F)F)n(C)c3=O)c2o1: 95
CCOC(OCC)c1cc2c(Cl)cc(F)c(-n3c(=O)cc(C(F)(F)F)n(C)c3=O)c2o1: 85
Cn1c(C(F)(F)F)cc(=O)n(-c2c(F)cc(Cl)c3cc(C(C)(C)O)oc23)c1=O: 100
